B1: KCNAB2 (parent)
chain: IPPYSRASLKGYQWLKDKILSEEG

- Variants of: B1
- procedure.details: protein stability index of a GFP-peptide fusion (GPS, HEK-293T) (PSI 1-6); higher = more stable;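 further: lentivirally expressed fusions sorted by FACS into six bins by GFP to DsRed ratio, PSI derived from sequencing read proportions per bin multiplied by bin number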
- test.parameters: c terminus: a fixed tail appended
Recorded measurements of protein stability index, one per entry
outcome.measure: protein stability index

* IPPYSRASLEGYQWLKDKILSEEG | 3.57
* IPPYSRASLKGYQWLKMKILSEEG | 1.57
* IPPYSRAGLKGYQWLKDKILSEEG | 1.96
* DPPYSRASLKGYQWLKDKILSEEG | 3.51
* IPPYSRASLKGYQWLKFKILSEEG | 2.25
* IPPYSRASLKGYQWLRDKILSEEG | 3.2
* NPPYSRASLKGYQWLKDKILSEEG | 2.5
* IPPYSRGSLKGYQWLKDKILSEEG | 2.58
* IPPYSRASLKGYQWLKDKILSWEG | 2.74
* IDPYSRASLKGYQWLKDKILSEEG | 1.7
* GPPYSRASLKGYQWLKDKILSEEG | 2.19
* IPPYSRASLKGYQWLKDKILSEED | 3.48
* IPPYSRASLKGYQSLKDKILSEEG | 2.95
* IPPYSRASLKGYQWLKDKIKSEEG | 2.81
* IPPYSRASLKGYQWLKHKILSEEG | 2.69
* IPPYSRASLVGYQWLKDKILSEEG | 2.14
* IPPYSRASLSGYQWLKDKILSEEG | 3.34
* IPPYSRASLKGYQWLKDKILSEMG | 2.31
* IPPYSRASLKGYQWLKRKILSEEG | 1.91
* IPPYSRASLKGYQWLKDKILSEEQ | 3.79
* IPLYSRASLKGYQWLKDKILSEEG | 3.1
* IPPYSRASLKGYQWLKDKILPEEG | 2.45
* IPPYSRASLKGYQWLMDKILSEEG | 1.71
* IPPYSRASMKGYQWLKDKILSEEG | 2.24
* IPPYSRASLKGYQYLKDKILSEEG | 3.32
* IPPYSRASLKGYQWLKDKIHSEEG | 2.16
* IPPYSRASLIGYQWLKDKILSEEG | 2.2
* IPPWSRASLKGYQWLKDKILSEEG | 1.12
* IFPYSRASLKGYQWLKDKILSEEG | 2.2
* KPPYSRASLKGYQWLKDKILSEEG | 2.33
* IPPYSRASLKGYQWLKDKILSEES | 2.49
* IPPYSRASLKGKQWLKDKILSEEG | 4.35
* IPQYSRASLKGYQWLKDKILSEEG | 2.54
* IPPYSRASLKAYQWLKDKILSEEG | 1.8
* IPNYSRASLKGYQWLKDKILSEEG | 2.48
* IPPYSRASLKGYQGLKDKILSEEG | 4.07
* IPKYSRASLKGYQWLKDKILSEEG | 2.75
* IPPYSRASLKGYQWLCDKILSEEG | 3.16
* IPPYSRASLKGYQWLADKILSEEG | 1.82
* IPPYSRASSKGYQWLKDKILSEEG | 3.84
* IPPYSRASLKGYQWLKDNILSEEG | 3.29
* IPVYSRASLKGYQWLKDKILSEEG | 2.3
* CPPYSRASLKGYQWLKDKILSEEG | 2.43
* IPPYSRASIKGYQWLKDKILSEEG | 2.56
* IPPYSRASLKYYQWLKDKILSEEG | 2.91
* IPFYSRASLKGYQWLKDKILSEEG | 2.85
* IPPYSRASLKGYQWLKDGILSEEG | 2.95
* IPAYSRASLKGYQWLKDKILSEEG | 2.27
* IPPYFRASLKGYQWLKDKILSEEG | 3.12
* IPPYSRASLKGYQWLKDKILSFEG | 2.12
* IPPYSRASLKGYQWLKDKILSEER | 1.47
* IPPYSRASLKWYQWLKDKILSEEG | 3.38
* IPPYSRASLKGYAWLKDKILSEEG | 1.82
* IPPYSRASLGGYQWLKDKILSEEG | 2.88
* IPPYSRASLKGYQWLKDKILSSEG | 2.08
* IPPYSRASLKGYQWLQDKILSEEG | 2.31
* IPPYSRASLKGYQWLKDKILHEEG | 2.12
* IPPYSRASLKGYQWLKDKILSEEN | 2.05
* IPPYSRASLKGYQWLKDKILSENG | 2
* IPPYSRASLKGYQWLKDKILSEAG | 3.77
* IPPYSRASLKGYQWLKDKILSEEI | 1.81
* IPPYSRASLKGYQWLKSKILSEEG | 1.6
* APPYSRASLKGYQWLKDKILSEEG | 2.6
* IPPLSRASLKGYQWLKDKILSEEG | 1.34
* IPSYSRASLKGYQWLKDKILSEEG | 2.62
* IPPYSRASHKGYQWLKDKILSEEG | 2.38
* IPPYSRLSLKGYQWLKDKILSEEG | 3.23
* IPPYSRASLKMYQWLKDKILSEEG | 2.08
* IPPYSRASLKGYQWDKDKILSEEG | 4.13
* IPPYSRASLKGYQWLKCKILSEEG | 1.3
* IPPYSRASLKGYSWLKDKILSEEG | 2.95
* IPPYSRASLKGYQLLKDKILSEEG | 3.57
* IPPYDRASLKGYQWLKDKILSEEG | 2.8
* IPPYSRVSLKGYQWLKDKILSEEG | 2.41
* LPPYSRASLKGYQWLKDKILSEEG | 2.08
* IPPYKRASLKGYQWLKDKILSEEG | 2
* IPPYSRTSLKGYQWLKDKILSEEG | 2.23
* IPPYSAASLKGYQWLKDKILSEEG | 2.82
* IPPYSRASLKGDQWLKDKILSEEG | 3.97
* IPPYSRASLKGYQWIKDKILSEEG | 2.11
* IPPYSRASLKGYQWLKDKPLSEEG | 3.8
* IPPYSRASLKGYQWLVDKILSEEG | 2.08
* IPPYSRASLKGYQWLKDKTLSEEG | 3.4
* IPCYSRASLKGYQWLKDKILSEEG | 1.51
* IPPKSRASLKGYQWLKDKILSEEG | 2.77
* IRPYSRASLKGYQWLKDKILSEEG | 2.62
* IPPYSVASLKGYQWLKDKILSEEG | 1.7
* IPPYSRASLKGYQWLKDKILSDEG | 2.68
* IPPYSRASLKGYQWLKNKILSEEG | 2.39
* IPPYSRASLKGYQWLKGKILSEEG | 2.03
* IPPYSRASLKGYQWLKDKILVEEG | 1.67
